Literature IC50 values, system: Tyrosine-protein kinase Lck (Homo sapiens).

The examples below pair each entry with its known result.
Compound: CNc1nccc(-c2sc(-c3cnc(C)nc3)nc2-c2cccc(NS(=O)(=O)c3c(F)ccc(C)c3F)c2F)n1
IC50: > 1000 nM
--
Compound: O=C(CNc1cc(Cl)cc(Cl)c1)N1CC[C@H]2CCN(c3ncnc4[nH]ccc34)[C@H]2C1
IC50: 100 to 999 nM
--
Compound: O=C(Nc1cnc2[nH]c(-c3ccccc3)cc2c1)c1ccccc1Cl
IC50: 40 to 9000 nM
--
Compound: CN1CCN(c2ccc3nc(-c4c(NCc5ccncc5)c5sccc5[nH]c4=O)[nH]c3c2)CC1
IC50: 50 to 500 nM
--
Compound: CCC[C@@H](Nc1cc(F)cc(Cl)c1)C(=O)N1CCC2CCN(c3ncnc4[nH]ccc34)C2C1 (stereo partly drawn)
IC50: 100 to 999 nM

Using the record for `O=C(NCCCN1CCCC1=O)c1nc2nc(Nc3ccc(F)cc3)ncc2cc1-c1ccccc1Br` , report its IC50.
275 nM

Same thing, different compound: `Cc1ccc(F)c(S(=O)(=O)Nc2cccc(-c3nc(N4CCCCC4)sc3-c3ccnc(NC4CC4)n3)c2F)c1F`
> 1000 nM

---

From various publications: pIC50 for Tyrosine-protein kinase Lck (Homo sapiens).
pIC50: −log10 of the molar value.

Example entries and their recorded answers appear below.
Entry Smiles: CNc1nccc(-c2sc(-c3cncnc3)nc2-c2cccc(NS(=O)(=O)c3c(F)cccc3F)c2F)n1
pIC50: < 6.00

Entry Smiles: O=C(NCCN1CCNC1=O)c1nc2nc(Nc3ccc(F)cc3)ncc2cc1-c1ccccc1Br
pIC50: 6.43

Entry Smiles: Cc1ncc(-c2nc(-c3cccc(NS(=O)(=O)c4c(F)ccc(C)c4F)c3F)c(-c3ccnc(NC4CC4)n3)s2)cn1
pIC50: < 6.00

Entry Smiles: CNc1nccc(-c2sc(N3CCCCC3)nc2-c2cccc(NS(=O)(=O)c3c(F)cccc3F)c2F)n1
pIC50: < 6.00

Entry Smiles: Nc1nccc(-c2sc(-c3cncc(C4CC4)c3)nc2-c2cccc(NS(=O)(=O)c3c(F)cccc3F)c2F)n1
pIC50: < 6.00

Entry Smiles: Cc1cc2[nH]c(-c3c(N)c4ccsc4[nH]c3=O)nc2cc1N1CCN(C)CC1
pIC50: 6.30 to 7.30

Now let's try a different one.
Param readout= pIC50; system= Tyrosine-protein kinase Lck (Homo sapiens); entry= `O=S(=O)(Nc1cccc(-c2nc(-c3ccc(F)cn3)sc2-c2ccnc(NC3CC3)n2)c1F)c1c(Cl)cccc1Cl` ; returns value.
< 6.00

---

Reported IC50 against Tyrosine-protein kinase Lck (Homo sapiens, UniProt P06239), gathered from multiple publications, appears below.

Would you please look over these solved cases?
Compound: CCN(CC)CCOc1ccc(Nc2ncc3cc(-c4ccccc4Br)c(C#N)nc3n2)cc1
IC50: 0.0051 µM
//
Compound: N#CN1C[C@H](n2nc(-c3ccc(Oc4ccc(F)cc4F)cc3)c(C(N)=O)c2N)CCC12CC2
IC50: 0.1 to 1 µM
//
Compound: CC(C)OC(=O)Nc1cnc2[nH]c(-c3cccc([S+](C)[O-])c3)nc2c1 (centres unmarked)
IC50: 0.1 to 9 µM
//
Compound: C=CC(=O)N1CCC[C@@H]1Cn1nc(-c2ccc(Oc3ccccc3)cc2)c2c(N)ncnc21
IC50: 0.00156 µM
//
Compound: Cc1ccc(-c2nc3cc(NC(=O)c4ccccc4Cl)cnc3[nH]2)cn1
IC50: 0.04 to 9 µM

# IC50 lookup, item `CC#CC(=O)N1CC[C@@H](n2nc(-c3ccc(C(=O)Nc4cc(CCC)ccn4)cc3)c3c(N)ncnc32)C1`
0.1 to 1 µM

Note, next up: CC(C)OC(=O)Nc1cnc2[nH]c(-c3ccc([S+](C)[O-])cc3)nc2c1 (centres unmarked)
0.1 to 9 µM

Check `Nc1nccc(-c2c(-c3cccc(NS(=O)(=O)c4c(F)cccc4F)c3F)nc3cc(C(F)(F)F)ccn23)n1` too.
> 1 µM
